Molecular target: T1, IL-11 protein (UniProt P20809 22-199, limits assumed)
T1 construct: also called IL-11 antigen
T1 sequence (looked up): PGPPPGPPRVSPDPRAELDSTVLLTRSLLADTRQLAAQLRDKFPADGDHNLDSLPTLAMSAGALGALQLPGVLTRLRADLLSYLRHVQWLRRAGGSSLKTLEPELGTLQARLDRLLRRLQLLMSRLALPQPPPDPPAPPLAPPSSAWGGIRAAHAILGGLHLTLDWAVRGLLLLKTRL
Experiment: ELISA, monoclonal hybridoma supernatant on IL-11
Excerpt: Cell lines with high secretion of specific antibody were selected for expanded culture and cryopreservation.
Provide the reported OD450 of each item.
Answers are plain numbers.

Please report OD450 for every entry that follows.
1. 3-15D5-3A6 (antibody, human IgG1, kappa, V domains shown) VH: QVTLKESGPGILQPSQTLSLTCSFSGFSLSSSGMSVGWIRQPSGKGLEWLAHIWWSDDKSYNPALKSRLTISKDTSNNQVFLKIASVVTADTATYYCAREGSLGYGLDYWGQGTTLTVSS VL: DVLMTQTPLSLPVSLGDQASISCRSSQSIVHTDGNTYLEWYLQKPGQSPKLLIYKVSNRFSGVPDRFSGSGSGTDFTLKISRVEAEDLGVYYCFQGSHVPWTFGGGTKLEIKR
2. 3-6A4 (antibody, human IgG1, kappa, V domains shown, also called 3-6A4 antibody; 3-6A4 mAb) VH: QIQLVQSGPELKKPGETVKISCKASGYTFTTNGINWVKQAAGKGLKWMGWINTNTGEPTNAEELKGRFAFSLETSASTAYLQINNLKNEDAAIYFCAREGAFGLDYWGQGTSVTVSS VL: SIVMTQSPKFLLVSAGDRVIITCKASQSVSNDVVWYQQKPGQSPKLLIYYGSHRNTGVPTRFTGSGYGTDFTFTISTVQAEDLAVYFCQQDFFSPWTFGGGTKLEIKR
3. 3-2B5-3D2 (antibody, human IgG1, kappa, V domains shown) VH: QVQLKQSGPGLVLPSQSLSITCTVSGFSLTSYGVHWFRQSPGTGLEWLGVIWSGGITDYNATFIPRLSISKDNSKSQVFFKMNSLQADDTAIYYCARNFDGYYYSIDYWGQGTSVTVSS VL: DIQMTQTTSSLSASLGDRVTISCRASQDISNSLNWYQQKPDGTVKLLIYYTSRLHSGVPSRFTGSGSGTDYSLTISNLEQEDIATYFCQQGNTLPLTFGAGTKLELKR

1: 1.69; 2: 1.58; 3: 1.61
